biological target: Wee1-like protein kinase (Homo sapiens, UniProt P30291); test: Inhibition of human Wee1 (215 to 647 residues) using polyornithine/tyrosine (4:1) as substrate incubated for 5 mins in presence of ATP by micro beta plate reader analysis
Sequence (P30291 whole entry, the tested form may be a part): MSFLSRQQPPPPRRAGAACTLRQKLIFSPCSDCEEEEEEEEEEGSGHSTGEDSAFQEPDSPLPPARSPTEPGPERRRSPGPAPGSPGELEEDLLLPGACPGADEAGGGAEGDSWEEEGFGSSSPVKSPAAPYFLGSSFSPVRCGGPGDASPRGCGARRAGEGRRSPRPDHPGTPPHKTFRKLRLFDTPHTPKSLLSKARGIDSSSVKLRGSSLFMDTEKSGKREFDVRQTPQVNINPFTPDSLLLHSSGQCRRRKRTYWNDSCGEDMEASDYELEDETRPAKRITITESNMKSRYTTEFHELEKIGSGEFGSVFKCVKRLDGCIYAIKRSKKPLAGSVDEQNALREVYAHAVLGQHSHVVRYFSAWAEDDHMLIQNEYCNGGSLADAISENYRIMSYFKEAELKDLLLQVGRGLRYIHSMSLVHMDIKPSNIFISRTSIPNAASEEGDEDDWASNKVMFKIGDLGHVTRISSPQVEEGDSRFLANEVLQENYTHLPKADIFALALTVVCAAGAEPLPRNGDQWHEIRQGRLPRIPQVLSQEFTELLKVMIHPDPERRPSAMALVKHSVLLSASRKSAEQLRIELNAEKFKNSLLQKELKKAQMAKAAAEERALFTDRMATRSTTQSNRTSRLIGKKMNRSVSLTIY
readout_name: IC50 (nM)

# example entries with known answers
>  <smiles_entry>
C=CCn1c(=O)c2cnc(Nc3ccc(N4CCN(C)CC4)cc3)nc2n1-c1cccc(-n2ccc(C)n2)n1

>  <study_system>
Wee1-like protein kinase (Homo sapiens, UniProt P30291)

>  <output_unit>
nM

>  <IC50>
4.1

$$$$
>  <smiles_entry>
C=CCn1c(=O)c2cnc(Nc3ccc(N4C[C@@H](C)N[C@@H](C)C4)cc3)nc2n1-c1cccc(-c2ncccn2)n1

>  <study_system>
Wee1-like protein kinase (Homo sapiens, UniProt P30291)

>  <output_unit>
nM

>  <IC50>
2.4

$$$$
>  <smiles_entry>
C=CCn1c(=O)c2cnc(Nc3ccc(N4CCN(C)CC4)cc3)nc2n1-c1cccc(-c2ncc(C#N)cn2)n1

>  <study_system>
Wee1-like protein kinase (Homo sapiens, UniProt P30291)

>  <output_unit>
nM

>  <IC50>
2.4

$$$$

A. C=CCn1c(=O)c2cnc(Nc3ccc(N4CCN(C)CC4)cc3)nc2n1-c1cccc(-c2ncc(F)cn2)n1
B. COCCn1c(=O)c2cnc(Nc3ccc(N4CCN(C)CC4)cc3)nc2n1-c1cccc(-c2cnccn2)n1
C. C=CCn1c(=O)c2cnc(Nc3ccc(N4CCN(C)CC4)cc3)nc2n1-c1cccc(-c2ncc(C)cn2)n1
Hey, quick one: sort these by IC50, largest value first please. Put the labels in the order asked and list them.
B, A, C

A. C=CCn1c(=O)c2cnc(Nc3ccc(N4CCN(C)CC4)cc3)nc2n1-c1cc(-c2cnccn2)ccn1
B. C=CCn1c(=O)c2cnc(Nc3ccc(N4CCC(N5CCN(C)CC5)CC4)cc3)nc2n1-c1cccc(-c2cnccn2)n1
Which gives the smaller IC50 number: A or B ? Answer with the label corresponding to your selection.
B
(B: 2 nM, A: 12.6 nM)

====

test: Metabolic stability in human liver microsome assessed as parent compound remaining measured at 60 mins by LCMS/MS analysis; assay type: ADME; settings: liver microsomes, read-out: Stability
readout_name: remaining at 1 h (%)

>  <smiles_entry>
C=CCn1c(=O)c2cnc(Nc3ccc(C4CCN(C)CC4)cc3)nc2n1-c1cccc(-c2cccnn2)n1

>  <remaining at 1 h, %>
67

$$$$

A. C=CCn1c(=O)c2cnc(Nc3ccc(N4C[C@@H](C)N[C@@H](C)C4)cc3)nc2n1-c1cccc(-c2ncccn2)n1
B. C=CCn1c(=O)c2cnc(Nc3ccc(N4C[C@@H](C)N[C@@H](C)C4)cc3)nc2n1-c1cccc(-c2cccnn2)n1
C. C=CCn1c(=O)c2cnc(Nc3ccc(N4CCN(C)CC4)cc3)nc2n1-c1cccc(-n2cc(C)cn2)n1
Order the items by recorded remaining at 1 h; the first position goes to the largest value. I would appreciate it if you listed the labels in the requested order.
B, A, C

====

assay: Metabolic stability in mouse liver microsome assessed as parent compound remaining measured at 60 mins by LCMS/MS analysis; assay type: ADME; details: liver microsomes, read-out: Stability
readout_name: remaining at 1 h (%)

>  <smiles_entry>
C=CCn1c(=O)c2cnc(Nc3ccc4c(c3)CN(C)CC4)nc2n1-c1cccc(-c2cccnn2)n1

>  <output_unit>
%

>  <reported_value>
39.4

$$$$

I. C=CCn1c(=O)c2cnc(Nc3ccc(N4C[C@H]5C[C@@H]4CN5C)cc3)nc2n1-c1cccc(-c2cnccn2)n1
II. C=CCn1c(=O)c2cnc(Nc3ccc(N4C[C@@H](C)N[C@@H](C)C4)cc3)nc2n1-c1cccc(-c2cccnn2)n1
III. C=CCn1c(=O)c2cnc(Nc3ccc(N4C[C@@H](C)N[C@@H](C)C4)cc3)nc2n1-c1cccc(-c2cnccn2)n1
# sort list by recorded remaining at 1 h, greatest to least List labels; respect the requested ordering.
II, I, III

====

assay: Bioavailability in ICR mouse at 60 mg/kg, IG measured upto 24 hrs by LC-MS/MS analysis; assay type: ADME, organism-based; conditions: in vivo, po
readout_name: bioavailability (%)

# count of solved cases: 4
>  <smiles_entry>
C=CCn1c(=O)c2cnc(Nc3ccc(N4CCN(C)CC4)cc3)nc2n1-c1cccc(-c2cccnn2)n1

>  <output_unit>
%

>  <bioavailability>
41.9

$$$$
>  <smiles_entry>
C=CCn1c(=O)c2cnc(Nc3ccc(N4CCN(C)CC4)cc3)nc2n1-c1cccc(-c2ncccn2)n1

>  <output_unit>
%

>  <bioavailability>
61.1

$$$$
>  <smiles_entry>
C=CCn1c(=O)c2cnc(Nc3ccc(N4CCC(N5CCN(C)CC5)CC4)cc3)nc2n1-c1cccc(-c2cnccn2)n1

>  <output_unit>
%

>  <bioavailability>
48.5

$$$$
>  <smiles_entry>
C=CCn1c(=O)c2cnc(Nc3ccc(N4CCN(CC)CC4)cc3)nc2n1-c1cccc(-c2cnccn2)n1

>  <output_unit>
%

>  <bioavailability>
46.5

$$$$

A. C=CCn1c(=O)c2cnc(Nc3ccc(N4CCN(CCO)CC4)cc3)nc2n1-c1cccc(-c2cnccn2)n1
B. C=CCn1c(=O)c2cnc(Nc3ccc(N4C[C@@H](C)N[C@@H](C)C4)cc3)nc2n1-c1cccc(-c2cccnn2)n1
C. C=CCn1c(=O)c2cnc(Nc3ccc(N4CCNCC4)cc3)nc2n1-c1cccc(-c2ncccn2)n1
Ascending by bioavailability, please. Write the labels, ordered according to the request.
B, C, A
(B: 0.4%, C: 1.96%, A: 54.9%)

====

test: Metabolic stability in mouse liver microsome assessed as parent compound remaining measured at 60 mins by LCMS/MS analysis; assay type: ADME; settings: liver microsomes, read-out: Stability
readout_name: remaining at 1 h (%)

>  <smiles_entry>
C=CCn1c(=O)c2cnc(Nc3ccc(N4CCN(CCN(C)C)CC4)cc3)nc2n1-c1cccc(-c2ncccn2)n1

>  <remaining at 1 h, %>
94.7

$$$$

P. C=CCn1c(=O)c2cnc(Nc3ccc(N4C[C@@H](C)N[C@@H](C)C4)cc3)nc2n1-c1cccc(-c2ncccn2)n1
Q. C=CCn1c(=O)c2cnc(Nc3ccc(N4CCN(C)CC4)cc3)nc2n1-c1cccc(-n2cccn2)n1
R. C=CCn1c(=O)c2cnc(Nc3ccc(N4CCN(C)CC4)cc3)nc2n1-c1cccc(-c2ncc(F)cn2)n1
# rank by remaining at 1 h, ascending (min first) List the labels in the requested order.
Q, R, P
(Q: 8.82%, R: 48.2%, P: 83.9%)

====

test: Metabolic stability in human liver microsome assessed as parent compound remaining measured at 60 mins by LCMS/MS analysis; type: ADME; conditions: liver microsomes, read-out: Stability
readout_name: remaining at 1 h (%)

These solved cases illustrate the format of a correct answer.
>  <smiles_entry>
C=CCn1c(=O)c2cnc(Nc3ccc4c(c3)CNCC4)nc2n1-c1cccc(-c2ncccn2)n1

>  <remaining at 1 h / %>
81

$$$$
>  <smiles_entry>
C=CCn1c(=O)c2cnc(Nc3ccc(N4CCC(N5CCN(C)CC5)CC4)cc3)nc2n1-c1cccc(-c2cnccn2)n1

>  <remaining at 1 h / %>
76.3

$$$$
>  <smiles_entry>
C=CCn1c(=O)c2cnc(Nc3ccc(N4CCN(CCO)CC4)cc3)nc2n1-c1cccc(-c2cnccn2)n1

>  <remaining at 1 h / %>
71.2

$$$$
>  <smiles_entry>
C=CCn1c(=O)c2cnc(Nc3ccc(N4CCN(CC)CC4)cc3)nc2n1-c1cccc(-c2cnccn2)n1

>  <remaining at 1 h / %>
65.2

$$$$
>  <smiles_entry>
C=CCn1c(=O)c2cnc(Nc3ccc(N4CCN(CCN(C)C)CC4)cc3)nc2n1-c1cccc(-c2cnccn2)n1

>  <remaining at 1 h / %>
67.2

$$$$

a. C=CCn1c(=O)c2cnc(Nc3ccc(N4CCN(C)CC4)cc3)nc2n1-c1cccc(-c2ncccn2)n1
b. C=CCn1c(=O)c2cnc(Nc3ccc(N4CCN(C)CC4)cc3)nc2n1-c1cccc(-c2cc(F)ccn2)n1
Between a and b , which one shows the larger remaining at 1 h value? Refer to your chosen item by its label in the answer.
a
(a: 79.8%, b: 30.7%)

====

assay: Metabolic stability in mouse liver microsome assessed as parent compound remaining measured at 60 mins by LCMS/MS analysis; assay type: ADME; details: liver microsomes, read-out: Stability
readout_name: remaining at 1 h (%)

These recorded examples may help you get a feel for the data.
>  <smiles_entry>
C=CCn1c(=O)c2cnc(Nc3ccc(N4CCN(C)CC4)cc3)nc2n1-c1cccc(-n2cnc(C)c2)n1

>  <output_unit>
%

>  <remaining at 1 h>
18.6

$$$$
>  <smiles_entry>
C=CCn1c(=O)c2cnc(Nc3ccc(N4CCN(CCO)CC4)cc3)nc2n1-c1cccc(-c2cnccn2)n1

>  <output_unit>
%

>  <remaining at 1 h>
56

$$$$
>  <smiles_entry>
C=CCn1c(=O)c2cnc(Nc3ccc(N4CCNCC4)cc3)nc2n1-c1cccc(-c2ncccn2)n1

>  <output_unit>
%

>  <remaining at 1 h>
99.1

$$$$
>  <smiles_entry>
C=CCn1c(=O)c2cnc(Nc3ccc(N4CCN(C)CC4)cc3)nc2n1-c1cccc(-c2cccnn2)n1

>  <output_unit>
%

>  <remaining at 1 h>
55.1

$$$$
>  <smiles_entry>
C=CCn1c(=O)c2cnc(Nc3ccc(N4CCC(N5CCN(C)CC5)CC4)cc3)nc2n1-c1cccc(-c2cnccn2)n1

>  <output_unit>
%

>  <remaining at 1 h>
78.5

$$$$

P. C=CCn1c(=O)c2cnc(Nc3ccc(N4CCN(C)CC4)cc3)nc2n1-c1cccc(-c2ccc(F)cn2)n1
Q. C=CCn1c(=O)c2cnc(Nc3ccc(N4CCN(C)CC4)cc3)nc2n1-c1cccc(-c2ncc(C)cn2)n1
R. C=CCn1c(=O)c2cnc(Nc3ccc(N4CCN(C)CC4)cc3)nc2n1-c1cccc(-n2cc(C)cn2)n1
Ascending sort, remaining at 1 h. # respond with the labels, arranged in the requested order
R, P, Q

P. C=CCn1c(=O)c2cnc(Nc3ccc4c(c3)CNCC4)nc2n1-c1cccc(-c2ncccn2)n1
Q. C=CCn1c(=O)c2cnc(Nc3ccc(N4CCN(C)CC4)cc3)nc2n1-c1cccc(-c2cc(F)ccn2)n1
R. C=CCn1c(=O)c2cnc(Nc3ccc(N4CCC(N5CCN(C)CC5)CC4)cc3)nc2n1-c1cccc(-c2ncccn2)n1
// sort entries: remaining at 1 h, high to low Provide your answer as the labels ordered per the instruction.
R, P, Q
(R: 97.1%, P: 65.8%, Q: 13.4%)

I. C=CCn1c(=O)c2cnc(Nc3ccc(C4CCN(C)CC4)cc3)nc2n1-c1cccc(-c2ncccn2)n1
II. C=CCn1c(=O)c2cnc(Nc3ccc(N4CCN(CC)CC4)cc3)nc2n1-c1cccc(-c2cnccn2)n1
Which of these two has the smaller recorded remaining at 1 h: I or II ? Write the label of whichever entry you select.
II

Attribution: ChEMBL document CHEMBL5512688
